// cross-study collection: pIC50 for UniProt:P33261
pIC50: −log10 of the molar value.
Observable: pIC50

compound=Cc1ccc(Nc2ccc(C(=O)c3c[nH]c4ncnc(NCC(F)(F)F)c34)c(F)n2)cn1 observable=pIC50 assay_value="> 5.30"
compound=CCc1ccc(Nc2ccc(Cc3c[nH]c4ncnc(C5CC5)c34)c(F)n2)cn1 observable=pIC50 assay_value="5.00 to 5.30"
compound="C[C@H](c1ccc(F)cc1)n1cncc1C1CCCC2CN(S(=O)(=O)c3cnc(Nc4ccccn4)s3)CCN21 (single isomer, unassigned)" observable=pIC50 assay_value=5.38
compound=C[C@@H](c1ccccc1-c1ccc(F)cc1)n1cncc1C(=O)N1CCC(N2CC[C@@H](O)[C@H](F)C2)CC1 observable=pIC50 assay_value="< 5.00"
